Reference source: the supplement of paper PMC4371806

Tested on: Escherichia coli BW25113
Test: plate-normalized OD600 growth (mean of duplicates) (OD600 (normalized)); higher = more growth (less inhibition)
Details: temperature: 37°C; 24 h; 10 µM
The full ranking holds about 2,300 compounds; the median of “plate-normalized OD600 growth (mean of duplicates)” is about 0.29, and the lowest 2% start at about 0.22. Only a selection was taken, and the lowest values are over-represented in it overall.
reported endpoint: plate-normalized OD600 growth

substance_smiles=COc1cc(S(=O)(=O)N2CCN(c3c(C)cccc3C)CC2)c(OC)cc1Cl reported_endpoint="plate-normalized OD600 growth" value_measured=0.617
substance_smiles=Cc1cc(C(O)(C(F)(F)F)C(F)(F)F)cc(C)c1O reported_endpoint="plate-normalized OD600 growth" value_measured=0.618
substance_smiles=O=C(N/N=C/c1ccc(OC(=O)c2cccc(F)c2)cc1)C1=NNC(c2ccccc2)(c2ccccc2)C1 reported_endpoint="plate-normalized OD600 growth" value_measured=0.624
substance_smiles=COc1ccc(/C(C)=N\NC2=NCCCN2)cc1 reported_endpoint="plate-normalized OD600 growth" value_measured=0.597
substance_smiles=COc1ccc(Nc2nc(N/N=C/c3ccc(-c4cccc(C(=O)O)c4)o3)nc(Nc3ccccc3)n2)cc1 reported_endpoint="plate-normalized OD600 growth" value_measured=0.634

----------
System: Escherichia coli BW25113
Experiment: plate-normalized OD600 growth (mean of duplicates) (OD600 (normalized)); higher = more growth (less inhibition)
Conditions: temperature: 37°C; 24 h; 10 µM
In all, about 2,300 compounds were measured (“plate-normalized OD600 growth (mean of duplicates)”: median about 0.29, lowest 2% from about 0.22 on). The list comes from a sample in which the lowest values are over-represented; it also holds close analogues and randomly drawn compounds.
reported endpoint: plate-normalized OD600 growth

compound="CC(Oc1ccccc1)C(=O)Nc1ccc(Cl)cc1 (stereo unspecified)" reported_endpoint="plate-normalized OD600 growth" value_measured=0.64
compound=O=S(=O)(c1cc(Br)c(Br)s1)N1CCCCC1 reported_endpoint="plate-normalized OD600 growth" value_measured=0.63
compound="O=C(O)c1ccc(Br)c(NC(=O)C2C3C=CC(C3)C2C(=O)O)c1 (stereo unspecified)" reported_endpoint="plate-normalized OD600 growth" value_measured=0.604
compound=CC(C)(C)S(=O)(=O)/C(C#N)=C/N1CCCCC1 reported_endpoint="plate-normalized OD600 growth" value_measured=0.62
compound="CC1(C)C2CCC1(C)C(N/C(=C(/C(Cl)=C(Cl)Cl)[N+](=O)[O-])n1nnc3ccccc31)C2 (stereo unspecified)" reported_endpoint="plate-normalized OD600 growth" value_measured=0.629
compound=O=C(NC1Cc2ccccc2C1)c1cncc(Br)c1 reported_endpoint="plate-normalized OD600 growth" value_measured=0.658
compound=CCc1ccc(NC(=O)CSc2nnc3n(N)cnn23)cc1 reported_endpoint="plate-normalized OD600 growth" value_measured=0.609
compound=Nc1c(C(=O)c2ccc(Br)cc2)sc2nc(-c3ccccc3)cc(-c3ccccc3)c12 reported_endpoint="plate-normalized OD600 growth" value_measured=0.621
compound=Cc1cc(C=Nc2ccc(Cl)c(O)c2)c(C)n1-c1ccc(Cl)cc1 reported_endpoint="plate-normalized OD600 growth" value_measured=0.605
compound=O=C1/C(=C\c2ccc(Cl)cc2Cl)N=C(c2ccccc2)N1C1CC1 reported_endpoint="plate-normalized OD600 growth" value_measured=0.577
compound=COc1ccc(/C=N/Nc2nnnn2-c2cccc3ccccc23)cc1OC reported_endpoint="plate-normalized OD600 growth" value_measured=0.627
